System: P. falciparum 3D7
Test: IDP rescue assay, P. falciparum 3D7
Type: cell-based
Conditions: Plasmodium falciparum, 3D7, 72 h; + IDP (125 μM)
Examples of compounds with documented pIC50 follow.
Here pIC50 is given on a logarithmic scale as minus log10 of the concentration in mol/L.

Reference set (4 entries):
Prompt line: Can you share its pIC50? I mean this compound: Cc1nc(N)sc1-c1csc(Nc2ccc(Cl)cn2)n1
Response line: 5.66

Prompt line: Can you share its pIC50? I mean this compound: Cc1nc(N)sc1-c1csc(Nc2ccc(C(F)(F)F)cc2)n1
Response line: 5.62

Prompt line: Can you share its pIC50? I mean this compound: OCc1cn(Cc2ccc(Cl)c(Cl)c2)c2cccc(F)c12
Response line: 5.51

Prompt line: Can you share its pIC50? I mean this compound: O=CN(O)CCCP(=O)(O)O [FSM, fosmidomycin, reference compound]
Response line: 4.43

Now consider the entry below.
Prompt line: Can you share its pIC50? I mean this compound: Cc1ccc(Nc2nc(-c3ccccn3)cs2)cc1C
Response line: 5.55

* * *

Examples of compounds with documented IC50 follow.
Tested on: P. falciparum Dd2
Test: Method III growth inhibition assay (HRP2-ELISA, 3 days), Dd2
Type: cell-based, Plasmodium falciparum
Conditions: chloroquine-resistant Dd2, method III

Reference set (3 entries):
Prompt line: For the record ON=C(Cc1ccc(Cl)cc1)c1ccc(O)nc1 [8Z] , what value of IC50 is listed for P. falciparum Dd2?
Response line: > 28 µM

Prompt line: For the record COc1ccc(C(Cc2ccc(Cl)cc2)=NO)cn1 [7Z] , what value of IC50 is listed for P. falciparum Dd2?
Response line: > 111 µM

Prompt line: For the record COc1ccc(C(Cc2ccc(Cl)cc2)=NO)cn1 [7E] , what value of IC50 is listed for P. falciparum Dd2?
Response line: > 55 µM

Now consider the entry below.
Prompt line: For the record ON=C(Cc1ccc(Cl)cc1)c1ccc(O)nc1 [8E] , what value of IC50 is listed for P. falciparum Dd2?
Response line: > 111 µM

* * *

Test: Metabolic stability in human liver S9 fraction
Assay type: in vitro ADME
Settings: human, pooled liver S9 fraction, 1 μM compound
Examples of compounds with documented half-life at 1 μM follow.
Give the number; min is assumed, so skip it.

Reference set (2 entries):
Prompt line: Can you share its half-life at 1 μM? I mean this compound: Oc1ccc(C(O)Cc2ccc(Cl)cc2)c(O)c1 (centres unmarked)
Response line: 98

Prompt line: Can you share its half-life at 1 μM? I mean this compound: OCc1cn(Cc2ccc(Cl)c(Cl)c2)c2ccccc12
Response line: 10

---
Prompt line: Can you share its half-life at 1 μM? I mean this compound: Nc1ccc(C(Cc2ccc(Cl)cc2)=NO)c(O)c1
Response line: 56

Prompt line: Can you share its half-life at 1 μM? I mean this compound: ON=C(Cc1ccc(Cl)cc1)c1ccc(O)cc1O
Response line: 28

* * *

Examples of molecules with documented IC50 follow.
Tested on: P. falciparum 3D7 MOCK cell line
Test: Growth inhibition of MOCK cell line (vector backbone only)
Type: cell-based
Conditions: Plasmodium falciparum, 3D7, read-out: MOCK IC50, MOCK compared with 3D7-TPK+; single measurement; 95% CI in brackets
Give your result as the value with the unit written after it.

Prompt line: Can you share its IC50? I mean this molecule: OCc1cn(Cc2ccc(Cl)c(Cl)c2)c2ccccc12
Response line: 23.8 µM

Prompt line: Can you share its IC50? I mean this molecule: Cc1nc(N)sc1-c1csc(Nc2ccc(C(F)(F)F)cc2)n1
Response line: 1.18 µM

---
Prompt line: Can you share its IC50? I mean this molecule: ON=C(Cc1ccc(Cl)cc1)c1ccc(O)cc1O
Response line: 90.4 µM
